AC50 data for Cytochrome P450 1A2 (Homo sapiens, UniProt P05177) follow.

The cases that follow already have their AC50 on record.
compound	outcome-measure	test-value
O=[N+]([O-])c1ccc(C[S+]([O-])Cc2ccccc2)cc1 (stereo not drawn)	AC50	3.16 µM (inconclusive)
O=C(c1ccc2c(c1)OCCO2)C1CCN(S(=O)(=O)c2ccccc2F)CC1	AC50	5.01 µM (inconclusive)
NC(=O)CNC(=O)[C@@H]1CC2(CC(c3ccccc3)=NO2)CN1C(=O)c1ccc(Br)cc1 (stereo partly drawn)	AC50	25.1 µM (inconclusive)
COc1ccc(CNc2ncnc3ccc(-c4ccc(C(=O)N(C)C)cc4)cc23)c(OC)c1	AC50	39.8 µM (inconclusive)
FC(F)(F)c1ccccc1-c1cncnc1Nc1ccccc1	AC50	25.1 µM (inconclusive)
NS(=O)(=O)c1cc2c(cc1C(F)(F)F)N[C@H](Cc1ccccc1)NS2(=O)=O	AC50	15.8 µM (inconclusive)

query: Report AC50 for CC(C)(O)c1cn(-c2nonc2N)nn1 tested on Cytochrome P450 1A2 (Homo sapiens, UniProt P05177).
Sequence (P05177 whole entry): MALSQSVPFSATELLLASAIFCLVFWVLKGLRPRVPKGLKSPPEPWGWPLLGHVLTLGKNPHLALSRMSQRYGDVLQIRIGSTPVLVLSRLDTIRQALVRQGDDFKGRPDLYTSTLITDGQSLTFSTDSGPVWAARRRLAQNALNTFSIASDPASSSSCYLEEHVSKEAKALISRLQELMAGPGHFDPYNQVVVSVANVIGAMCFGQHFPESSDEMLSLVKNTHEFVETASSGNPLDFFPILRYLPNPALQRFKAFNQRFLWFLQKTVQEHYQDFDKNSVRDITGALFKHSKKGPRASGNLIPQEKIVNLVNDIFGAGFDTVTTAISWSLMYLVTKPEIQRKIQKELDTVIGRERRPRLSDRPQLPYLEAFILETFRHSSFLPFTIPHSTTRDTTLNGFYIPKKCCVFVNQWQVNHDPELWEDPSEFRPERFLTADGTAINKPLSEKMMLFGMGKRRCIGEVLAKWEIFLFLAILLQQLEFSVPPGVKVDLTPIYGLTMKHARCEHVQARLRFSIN
result: 39.8 µM (inconclusive)

query: Form field - read-out: AC50; system: Cytochrome P450 1A2 (Homo sapiens, UniProt P05177); submitted item: COc1ccc2nc(O)c(CN(CCc3ccccc3)C(C)=O)cc2c1
result: 14.1 µM (inconclusive)

query: Observed AC50 on Cytochrome P450 1A2 (Homo sapiens, UniProt P05177) for COc1ccc(-c2nc3cnc(N4CCN(C)CC4)nc3n(C3CC3)c2=O)cc1 , please.
result: 20 µM (inconclusive)

query: Short answer please: AC50, Cytochrome P450 1A2 (Homo sapiens, UniProt P05177), entry COc1cccc(CN2CCN(Cc3cc(OC)c(OC)cc3[N+](=O)[O-])CC2)c1.O=C(O)C(=O)O
result: 14.1 µM (inconclusive)

query: Entry CC(C)CCN1CC(C(=O)N2CCN(c3ccc(F)cc3)CC2)CC1=O (stereo not drawn) , system Cytochrome P450 1A2 (Homo sapiens, UniProt P05177): what AC50 was measured?;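 further: PubChem cytochrome P450 panel assay, CYP1A2 panel member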
result: 0.251 µM (inconclusive)

query: Field: AC50 (Cytochrome P450 1A2 (Homo sapiens, UniProt P05177)). Entry: CCC(CC)C(=O)c1c[nH]c(C(=O)NCCCN2CCOCC2)c1
result: 25.1 µM (inconclusive)

query: Provide value of AC50 for this record tested with Cytochrome P450 1A2 (Homo sapiens, UniProt P05177): CS(=O)(=O)N1CCC[C@@]2(CCN(C(c3ccccc3)c3ccccc3)C2)C1
result: 25.1 µM (inconclusive)

query: Reported AC50 for Cytochrome P450 1A2 (Homo sapiens, UniProt P05177), given O=[N+]([O-])c1ccc(S(=O)(=O)Cc2ccccc2)c([N+](=O)[O-])c1 ?
result: 5.01 µM (inconclusive)

query: Given the entry O=C(c1ccc(-c2nnc(Nc3ccccc3)c3ccccc23)cc1)N1C[C@H]2C[C@H](C1)c1cccc(=O)n1C2 , what AC50 was observed with Cytochrome P450 1A2 (Homo sapiens, UniProt P05177)?
result: 14.1 µM (inconclusive)
